These measurements were taken from patent US8211929B2.

tgt: IGF 3P (Homo sapiens)
Construct: human IGF1R kinase domain residues M954-C1367; made in house; host or cells: baculovirus expression (insect cells)
runDescription: IGF1R kinase assay (LCCA), IGF 3P
Type: biochemical
appliedConditions: IGF1R kinase LCCA assay
endpointName: IC50

> print(dat)
                                   molecule          result
1  Clc1cc(Br)ccc1Nc1ncc(Br)c(Nc2cc(C3CC3)[nH]n2)n1  0.05 to 0.5 µM
2  O=C(NCCN1CCCCC1)c1cc(Nc2cc(C3CC3)[nH]n2)nc(NCc2cc(-c3ccccc3)no2)n1       < 0.05 µM
3  CC(=O)Nc1ccc(Cl)c(Nc2ncc(Br)c(Nc3cc(C)on3)n2)c1       < 0.05 µM
4  FC(F)(F)c1cc(Br)cc(Nc2ncc(Br)c(Nc3cc(C4CC4)n[nH]3)n2)c1          > 5 µM
5  Cc1cc(Nc2cc(C3CC3)[nH]n2)nc(NC(c2ccccc2)c2nc(-c3ccccc3)co2)n1 (centres unmarked)     0.5 to 5 µM

What value of measured IC50 is listed for c1ccc(-c2cc(CNc3nc(Nc4cc(C5CC5)[nH]n4)cc(N4CCNCC4)n3)on2)cc1 ?
< 0.05 µM

Another molecule to check: Cc1cc(Nc2cc(C3CC3)n[nH]2)nc(Nc2cc(C(F)(F)F)cc(C(F)(F)F)c2)n1
> 5 µM

Another molecule to check: Cc1cc(Nc2cc(C3CC3)n[nH]2)nc(Nc2ccc(CCNC(=O)OC(C)(C)C)cc2)n1
0.5 to 5 µM

Another molecule to check: Cc1cc(Nc2cc(C3CC3)n[nH]2)nc(Nc2ccc3cc(C(=O)NCCN4CCCC4)ccc3c2)n1
< 0.05 µM

Another molecule to check: CC(C)c1cc(Nc2cc(N3CCOCC3)nc(NCc3cc(-c4ccccc4)no3)n2)n[nH]1
< 0.05 µM

Another molecule to check: CC(=O)Nc1cnc(Nc2ccccc2Cl)nc1Nc1cc(C2CC2)n[nH]1
> 5 µM

Another molecule to check: Nc1cccc(Nc2nc(NCc3cc(-c4ccccc4)no3)ncc2Br)n1
> 5 µM

Another molecule to check: c1ccc(-c2cc(CNc3nc(Nc4cc(C5CC5)n[nH]4)cc(N4CCCC4)n3)on2)cc1
0.05 to 0.5 µM

Another molecule to check: Cc1cc(Nc2cc(C3CC3)[nH]n2)nc(NCc2cc(C(=O)N3CCN(C)CC3)no2)n1
0.5 to 5 µM

Another molecule to check: Clc1ccc(CCNc2ncc(Br)c(Nc3cc(C4CC4)n[nH]3)n2)cc1
0.5 to 5 µM

Another molecule to check: Clc1ccccc1Nc1ncc(Br)c(Nc2n[nH]c3ccccc23)n1
> 5 µM

Another molecule to check: Nc1ncnn1-c1nc(Nc2ccc(N3CCOCC3)cc2)ncc1Br
> 5 µM

---

Catalogue of molecules with associated IC50
tgt: IGF 3P (Homo sapiens, UniProt P08069)
Construct: human IGF1R kinase domain residues M954-C1367; made in house; host or cells: baculovirus expression (insect cells)
Sequence (P08069 954-1367): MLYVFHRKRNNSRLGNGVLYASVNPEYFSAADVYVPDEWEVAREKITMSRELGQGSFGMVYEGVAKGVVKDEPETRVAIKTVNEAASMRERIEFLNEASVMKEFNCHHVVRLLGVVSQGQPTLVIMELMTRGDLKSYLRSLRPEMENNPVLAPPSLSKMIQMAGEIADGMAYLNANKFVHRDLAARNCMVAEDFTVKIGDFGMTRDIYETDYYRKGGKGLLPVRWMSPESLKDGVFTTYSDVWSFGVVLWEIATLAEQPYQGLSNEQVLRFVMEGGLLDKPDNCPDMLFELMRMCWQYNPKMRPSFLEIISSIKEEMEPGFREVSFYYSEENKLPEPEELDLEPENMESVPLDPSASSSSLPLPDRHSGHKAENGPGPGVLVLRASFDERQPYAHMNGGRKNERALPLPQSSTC
runDescription: IGF1R kinase assay (LCCA), IGF 3P
Assay type: biochemical
appliedConditions: IGF1R kinase LCCA assay

Check out these entries, answers already filled in.
> print(dat)
                                   molecule                                    tgt          result
1  Clc1ccccc1Nc1nc(Nc2cc(C3CC3)n[nH]2)c2nc[nH]c2n1 [Example 210]  IGF 3P (Homo sapiens, UniProt P08069)  500 to 5000 nM
2  CCN(CC)CCNC(=O)c1cc2ccc(Nc3nc(C)cc(Nc4cc(C5CC5)n[nH]4)n3)cc2s1 [Example 221]  IGF 3P (Homo sapiens, UniProt P08069)  500 to 5000 nM
3  CN(C)C(=O)Oc1cccc(Nc2ncc(Br)c(Nc3cc(C4CC4)n[nH]3)n2)c1 [Example 35]  IGF 3P (Homo sapiens, UniProt P08069)    50 to 500 nM

What value of measured IC50 is listed for Cc1cc(Nc2nc(Nc3ccc(N4CCOCC4)cc3)ncc2Br)n(C)n1 [Example 215] ?
500 to 5000 nM

Another molecule to check: Cc1cc(Nc2cc(C3CC3)n[nH]2)nc(Nc2ccc(CCN3CCCC3)cc2)n1 [Example 551]
50 to 500 nM

Another molecule to check: Cc1cc(Nc2cc(C3CC3)n[nH]2)nc(Nc2cc(Br)cc(C(F)(F)F)c2)n1 [Example 301]
> 5000 nM

Another molecule to check: Cc1cc(Nc2cc(C3CC3)n[nH]2)nc(Nc2ccc(CCC(=O)NCCCN3CCCCC3)cc2)n1 [Example 51]
< 50 nM

Another molecule to check: O=C(NCCN1CCOCC1)c1nc(Nc2ccccc2Cl)nc(Nc2cc(C3CC3)n[nH]2)c1[N+](=O)[O-] [Example 228]
500 to 5000 nM
